PARAMETER MEASURED: melting point

compound_structure_string=O=C(COc1ncnc2sc3c(c12)CCCC3)NN=Cc1ccc(Br)cc1 reading="290 to 292 °C"
compound_structure_string=CN(C)c1ccc(C=NNC(=O)COc2ncnc3sc4c(c23)CCCC4)cc1 reading="285 °C"

Look up melting point for the entries below, preserving their order.
1. S=C(Nc1ccccc1)Nc1ncnc2sc3c(c12)CCCC3
2. O=C(COc1ncnc2sc3c(c12)CCCC3)NNC(=S)Nc1ccccc1
3. O=C(COc1ncnc2sc3c(c12)CCCC3)NNC(=O)c1ccc([N+](=O)[O-])cc1

["300 °C", "270 to 272 °C", "320 to 321 °C"]

// for each molecule below, give its melting point
1. Cc1cccc(NC(=O)Nc2ncnc3sc4c(c23)CCCC4)c1
2. O=C(Nc1ccc(Cl)c(C(F)(F)F)c1)Nc1ncnc2sc3c(c12)CCCC3
3. COc1ccc(C=NNC(=O)COc2ncnc3sc4c(c23)CCCC4)c(OC)c1OC

1: 300 °C; 2: 300 °C; 3: 280 to 281 °C

Recall and state the measured melting point for O=C(COc1ncnc2sc3c(c12)CCCC3)NN=Cc1ccc(Cl)cc1 .
275 to 276 °C
